System Under Test: Fuc(a1-2)[Gal(a1-3)]Gal(b1-4)Glc
Assay Overview: glycan array binding signal (z-score within array); higher = stronger binding
Condition: glycan notation: IUPAC condensed, linker removed
This is one part of a sample in which the strongest signals are shown more often than they occur.
Decision: glycan array binding signal (z-score) >= -0.05 yields rule met, all other cases yield rule not met.

Binder: EcCDA (Encephalitazoon cuniculi), Q8SU65 (protein) MLLCLLYFTSSWCSGSDVPDVCTNSGMIAINFVDGPVRGVTDRILNTLDELGVKATFSFTVNQKAVGNVGQLYRRAVEEGHNVALRVDPSMDEGYQCLSQDALENNVDREIDTIDGLSGTEIRYAAVPICNGQVNSEMYNILTERGVLPVGYTFCPYDYDDPVGEFESMIEGSDPKHHSFIILMHDGQEADTSRLENMVKIGKDKGYRFVNMDECLQGYKGAPGDPELSLRGKGVESIGKGFLPFFLMMLVRLL
Category Label: rule met
--
Binder: Als3-2 (Candida albicans) (protein) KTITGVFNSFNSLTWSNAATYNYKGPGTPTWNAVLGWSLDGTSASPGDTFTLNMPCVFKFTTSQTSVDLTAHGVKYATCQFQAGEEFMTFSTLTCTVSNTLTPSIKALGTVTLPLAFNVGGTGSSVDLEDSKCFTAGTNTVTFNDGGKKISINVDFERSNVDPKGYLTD
Category Label: rule not met
--
Binder: ConA (Canavalia ensiformis), P02866 (protein) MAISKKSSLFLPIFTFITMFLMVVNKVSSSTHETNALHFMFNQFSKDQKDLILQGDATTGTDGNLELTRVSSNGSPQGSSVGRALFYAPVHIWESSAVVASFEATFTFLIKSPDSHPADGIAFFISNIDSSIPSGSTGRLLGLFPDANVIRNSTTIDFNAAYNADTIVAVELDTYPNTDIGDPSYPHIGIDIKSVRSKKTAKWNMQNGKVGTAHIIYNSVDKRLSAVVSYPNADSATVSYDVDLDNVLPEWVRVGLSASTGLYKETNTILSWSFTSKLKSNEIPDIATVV
Category Label: rule not met
--
Binder: Wzz (Escherichia coli) (protein) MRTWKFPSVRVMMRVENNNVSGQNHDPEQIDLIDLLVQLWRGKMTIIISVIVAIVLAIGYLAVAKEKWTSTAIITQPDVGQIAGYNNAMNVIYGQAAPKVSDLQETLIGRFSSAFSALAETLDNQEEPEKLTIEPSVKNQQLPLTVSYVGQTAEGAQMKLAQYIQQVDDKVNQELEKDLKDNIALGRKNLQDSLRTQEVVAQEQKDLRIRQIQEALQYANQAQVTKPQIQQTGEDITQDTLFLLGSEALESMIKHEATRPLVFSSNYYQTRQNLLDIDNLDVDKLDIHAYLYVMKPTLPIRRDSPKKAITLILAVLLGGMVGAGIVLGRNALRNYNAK
Category Label: rule met
--
Binder: Protein L(B1-B4) (Finegoldia magna), Q51912 (protein) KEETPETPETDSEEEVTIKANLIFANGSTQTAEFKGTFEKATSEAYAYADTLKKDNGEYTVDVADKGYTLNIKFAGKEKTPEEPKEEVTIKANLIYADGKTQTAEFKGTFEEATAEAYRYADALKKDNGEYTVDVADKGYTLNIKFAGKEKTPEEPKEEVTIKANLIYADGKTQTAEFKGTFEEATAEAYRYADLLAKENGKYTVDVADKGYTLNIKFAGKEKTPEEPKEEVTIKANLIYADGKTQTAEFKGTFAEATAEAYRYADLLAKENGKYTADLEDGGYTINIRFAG
Category Label: rule met
--
Binder: Epa13 (Candida glabrata) (protein) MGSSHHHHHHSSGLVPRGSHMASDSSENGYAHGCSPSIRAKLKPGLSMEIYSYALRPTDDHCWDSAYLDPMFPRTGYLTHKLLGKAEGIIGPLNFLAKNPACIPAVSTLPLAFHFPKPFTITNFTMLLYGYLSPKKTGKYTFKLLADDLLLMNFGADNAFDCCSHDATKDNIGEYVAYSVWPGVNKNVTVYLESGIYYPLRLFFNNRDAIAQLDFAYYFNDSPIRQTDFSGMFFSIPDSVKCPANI
Category Label: rule met
--
Binder: GH98CBM (Clostridium perfringens) (protein) EVYALEESRDVYLSDLDWLNATHGDDTKSKIVQKNHPFTPGNNNQSTKISLKMEDGSISEFEKGLGTIAGSPSTITYDISGAGVTKFFSYLGIDRSANPINEQYAKVDKIEVVVDGKVIYSTINQFPNGLTYETPAIKVDLNIPENAKRLQLKSYAGEKTWGDEVVYADAKFTAKGDFVN
Category Label: rule met

The reported numbers originate from the supplement of paper PMC8728848.
